The measured values listed here are drawn from patent US8492397B2.

Quick note: these are log10(IC50) numbers for system: Aurora B (Homo sapiens, UniProt Q96GD4)
Sequence (Q96GD4 whole entry): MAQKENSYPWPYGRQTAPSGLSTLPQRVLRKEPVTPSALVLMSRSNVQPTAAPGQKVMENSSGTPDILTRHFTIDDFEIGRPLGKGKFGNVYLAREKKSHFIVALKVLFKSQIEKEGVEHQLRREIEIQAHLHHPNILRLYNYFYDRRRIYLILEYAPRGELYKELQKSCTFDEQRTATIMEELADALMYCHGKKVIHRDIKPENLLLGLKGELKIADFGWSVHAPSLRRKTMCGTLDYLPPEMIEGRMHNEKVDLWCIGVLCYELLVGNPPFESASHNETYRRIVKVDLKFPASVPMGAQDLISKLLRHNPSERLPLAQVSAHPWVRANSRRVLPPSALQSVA
Friendly reminder: values = log10 of IC50, unit nM.

Previously resolved entries follow.
Cc1cc(Nc2cc[nH]n2)nc(N2CC[C@H](NC(=O)O[C@@H](C)C(F)(F)F)C2)n1 [Example 1] :: 2.32
Cc1cc(Nc2cc[nH]n2)nc(N2CC[C@H](NC(=O)OC(C)(C)C(F)(F)F)C2)n1 [Example 4] :: 3.58
Cc1cc(Nc2cc[nH]n2)nc(N2CC(NC(=O)O[C@@H](C)C(F)(F)F)[C@H](C)C2)n1 (stereo in doubt) [Example 7] :: 2.49
Cc1cc(Nc2cc[nH]n2)nc(N2C[C@@H](O)[C@H](NC(=O)O[C@@H](C)C(F)(F)F)C2)n1 [Example 2] :: 3.34

Attention now shifts to the item below.
# input I'm curious: which log10(IC50) was measured for Cc1cc(Nc2cc[nH]n2)nc(N2CC(NC(=O)OC(C)(C)C)[C@H](C)C2)n1 (stereo in doubt) [Example 9] tested on Aurora B (Homo sapiens, UniProt Q96GD4)?
# output 3.76

---

Here the recorded pIC50 is given for each entry.
# TARGET_SYSTEM: Aurora A (Homo sapiens)
# Sequence (O14965 1-403): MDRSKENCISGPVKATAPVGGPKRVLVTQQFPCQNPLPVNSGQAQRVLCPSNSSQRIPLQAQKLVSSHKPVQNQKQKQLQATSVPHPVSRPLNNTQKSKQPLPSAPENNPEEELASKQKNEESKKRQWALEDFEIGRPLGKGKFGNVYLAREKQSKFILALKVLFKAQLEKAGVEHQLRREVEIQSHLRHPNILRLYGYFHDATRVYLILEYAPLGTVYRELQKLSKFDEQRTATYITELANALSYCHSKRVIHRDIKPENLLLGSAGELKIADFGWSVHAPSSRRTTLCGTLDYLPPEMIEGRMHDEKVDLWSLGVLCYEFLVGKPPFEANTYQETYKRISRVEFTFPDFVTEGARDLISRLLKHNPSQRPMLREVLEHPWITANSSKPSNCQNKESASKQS
When answering, recall that pIC50 equals minus log10 of the concentration in mol/L, and write that number alone.

Previously resolved entries follow.
CO[C@@H]1CN(c2nc(C)cc(Nc3cc[nH]n3)n2)C[C@H]1NC(=O)O[C@@H](C)C(F)(F)F :: 7.43
Cc1cc(Nc2cc[nH]n2)nc(N2CC[C@H](NC(=O)O[C@@H](C)C(F)(F)F)C2)n1 :: 8.44
Cc1cc(Nc2cc[nH]n2)nc(N2CC(NC(=O)OC(C)(C)C)[C@H](C)C2)n1 (stereo in doubt) :: 7.12

Attention now shifts to the item below.
# input I'm curious: which pIC50 was measured for `Cc1cc(Nc2cc[nH]n2)nc(N2CC[C@H](NC(=O)OC(C)(C)C(F)(F)F)C2)n1` tested on Aurora A (Homo sapiens)?
# output 7.66
